This listing pairs molecules with measured growth.
- System: OVCAR-3 ovarian
- ASSAY OVERVIEW: NCI-60 one-dose screen, 48 h (100 = growth as untreated, 0 = no growth, -100 = all killed)
- MEASUREMENT PARAMETERS: 10 µM unless noted
This is part of a sample that, as a whole, favours compounds with a hit. Of some 83,000 tested, about 20% had one in any assay.
Give the number; % is assumed, so skip it.

Known growth results, listed for orientation:
INSERT INTO measurements (molecule, numeric_readout) VALUES
  ('CCC(=O)c1ccc(O)c(OC)c1', 110),
  ('Clc1ccc(N2N=C(c3cccc(Nc4ccncc4)c3)CC2c2ccc3c(c2)OCO3)cc1 (centres undefined)', 23.5);

q: Give reported growth value for "Cc1cc(NC(=O)c2cnc(N3CCN(CCOCCOCCOCCOCCC(=O)N[C@H](C(=O)N4C[C@H](O)C[C@H]4C(=O)N[C@@H](C)c4ccc(-c5scnc5C)cc4)C(C)(C)C)CC3)cn2)c2ncccc2c1"
a: -30.8

q: Return growth (reported value) for this molecule: "COc1cc(-c2nc3sccn3c2-c2ccnc(NCCNS(=O)(=O)c3ccc(F)cc3)n2)ccc1F"
a: 25.3

q: Identify the reported growth for the following entry. CS(=O)(=O)c1ccc(-c2cc3c(oc2=O)-c2ccccc2OC3O)cc1 (centres undefined)
a: 88.2

q: Return growth for the following molecule: "O=C(N/N=C/c1cccc(O)c1)c1ccccc1Nc1cccc(C(F)(F)F)c1"
a: 62.1

q: Provide measured growth value, entry: "CSc1nc(O)c(-c2ccccc2)c(=O)[nH]1"
a: 120

q: Consider the molecule "COc1cc2c(cc1[N+](=O)[O-])-c1ccc([N+](=O)[O-])cc1/C2=N/NC(N)=S" . State its measured growth.
a: 73.7

q: Given "O=C1NC(=S)NC(=O)C1=Cc1cccc(C=C2C(=O)NC(=S)NC2=O)c1" , respond with its growth.
a: 108

q: Item "O=C1Nc2ccccc2/C1=C\c1cccc(/C=C2/C(=O)Nc3ccccc32)n1" : provide growth
a: -89.6

* * *

- Tested on: SNB-19 CNS
- ASSAY OVERVIEW: NCI-60 one-dose screen, 48 h (100 = growth as untreated, 0 = no growth, -100 = all killed)
- MEASUREMENT PARAMETERS: 10 µM unless noted
The panel holds about 83,000 compounds, 20% with a hit somewhere; the sample as a whole holds those more often.
PROPERTY MEASURED: growth (%)
Enter your answer as a number in %; do not include the unit.

Below are worked cases with known answers.
INSERT INTO measurements (compound, numeric_readout) VALUES
  ('CC1(C)CN(Cc2ccccc2)CCN1Cc1ccccc1', 98.1),
  ('CCN1C(=O)/C(=c2\sc3n(c2=O)NC2C(N=3)N(CC)C(=O)N2CC)c2ccccc21 (stereo not given)', 50.8),
  ('COc1cc(NCCCN(CC(C)C)C2CCCC2)c2ncccc2c1', 84.6),
  ('Cc1cccc(C)c1-c1cc(Cc2ccc(Cl)cc2)c(=O)[nH]n1', 80.9),
  ('COc1ccc(C(=O)c2cc(C)c(OC)c(C)c2)c(OC)c1O', 22.2);

q: Give the measured growth for COc1cc(OC)cc(C2C3=C(COC3=O)Nc3cc(OC)ccc32)c1 (stereo not given)
a: 36.2

q: State its growth: CN1C(=O)N(C)C2NC(N/N=C/c3ccccc3)=NC21 (stereo not given)
a: 102

q: Annotate the compound "Cc1cc(NC(=O)c2cnc(N3CCN(CCOCCOCCOCCOCCC(=O)N[C@H](C(=O)N4C[C@H](O)C[C@H]4C(=O)N[C@@H](C)c4ccc(-c5scnc5C)cc4)C(C)(C)C)CC3)cn2)c2ncccc2c1" with its measured growth.
a: 27.7
